The reported numbers originate from patent US20100280024A1.

target: UniProt:P00797; test: In-vitro renin inhibition assay (modified Cayman renin inhibitor screening assay, fluorescence); format: biochemical; design: purchased Cayman 10006270; conditions: compound concentration 1 μM; 37° C., 30 mins; read-out: Renin inhibition (percent inhibition of renin activity) at 1 μM
Where a name gives a salt, the structure may show the parent alone.
MEASURED_ENDPOINT: inhibition at 1 µM (%)

Here are 6 compounds together with their reported answers.
What reported inhibition at 1 µM corresponds to COC1CCCN(C(=O)C(CN)Cc2ccc(OCCOc3c(Cl)cc(C)cc3Cl)cc2)C1 (centres unmarked) [Example 30, hydrochloride] on UniProt:P00797?
92.9

What reported inhibition at 1 µM corresponds to Cc1cc(Cl)c(OCCOc2ccc(CC(CN)C(=O)N3CCCc4cc(Cl)cc(Cl)c43)cc2)c(Cl)c1 (centres unmarked) on UniProt:P00797?
87

What reported inhibition at 1 µM corresponds to Cc1cc(Cl)c(OCCOc2ccc(CC(CN)C(=O)N3CCC(C)CC3)cc2)c(Cl)c1 (centres unmarked) on UniProt:P00797?
65.8

What reported inhibition at 1 µM corresponds to Cc1cc(Cl)c(OCCOc2ccc(CC(CN)C(=O)N3CCCc4ccc(C)c(C)c43)cc2)c(Cl)c1 (centres unmarked) on UniProt:P00797?
98.1

What reported inhibition at 1 µM corresponds to Cc1cc(Cl)c(OCCOc2ccc(CC(CN)C(=O)N3CCOCC3)cc2)c(Cl)c1 (centres unmarked) [Example 25, hydrochloride] on UniProt:P00797?
76.4

What reported inhibition at 1 µM corresponds to Cc1cc(Cl)c(OCCOc2ccc(CC(CN)C(=O)N3CCCC3)cc2)c(Cl)c1 (centres unmarked) on UniProt:P00797?
81.1

[P] COCCCOc1ccc2c(c1)CCCN2C(=O)C(CN)Cc1ccc(OCCOc2c(Cl)cc(C)cc2Cl)cc1 (centres unmarked)
[Q] Cc1cc(Cl)c(OCCOc2ccc(CC(CN)C(=O)N3CCCc4ccccc43)cn2)c(Cl)c1 (centres unmarked)
Please let me know which one, P or Q , has a lower measured inhibition at 1 µM value. Response format: the label of the selected entry.
Q

---

molecular target: Renin (Homo sapiens); assay: In-vitro renin inhibition assay (modified Cayman renin inhibitor screening assay, fluorescence); type: biochemical; parameters: purchased Cayman 10006270; settings: compound concentration 1 μM; 37° C., 30 mins; read-out: Renin inhibition (percent inhibition of renin activity) at 1 μM
Sequence (P00797 67-406): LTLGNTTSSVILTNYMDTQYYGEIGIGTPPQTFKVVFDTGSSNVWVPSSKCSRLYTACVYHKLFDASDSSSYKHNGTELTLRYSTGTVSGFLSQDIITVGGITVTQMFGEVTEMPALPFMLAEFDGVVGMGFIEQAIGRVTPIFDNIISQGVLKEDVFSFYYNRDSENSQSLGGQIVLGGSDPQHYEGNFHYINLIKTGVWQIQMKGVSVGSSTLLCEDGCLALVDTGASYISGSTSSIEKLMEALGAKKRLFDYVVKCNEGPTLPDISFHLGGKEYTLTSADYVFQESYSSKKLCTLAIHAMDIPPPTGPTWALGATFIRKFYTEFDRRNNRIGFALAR
Where a name gives a salt, the structure may show the parent alone.
MEASURED_ENDPOINT: inhibition at 1 µM (%)

Quick one: inhibition at 1 µM for Cc1cc(Cl)c(OCCOc2ccc(CC(CN)C(=O)N3CCCc4cc(C(F)(F)F)ccc43)cn2)c(Cl)c1 (stereo not drawn) [Example 41] ?
98.6

Quick one: inhibition at 1 µM for Cc1ccc(OCCOc2ccc(CC(CN)C(=O)N3CCCc4cc(C(F)(F)F)ccc43)cc2)c(Cl)c1 (stereo not drawn) [Example 33] ?
89.2

Quick one: inhibition at 1 µM for Cc1cc(Cl)c(OCCCOc2ccc(CC(CN)C(=O)N3CCCc4ccccc43)cc2)c(Cl)c1 (stereo not drawn) [Example 45] ?
97.1

Quick one: inhibition at 1 µM for Cc1cc(Cl)c(OCCOc2ccc(CC(CN)C(=O)N3CCCc4cc(C)ccc43)cc2)c(Cl)c1 (stereo not drawn) [Example 16] ?
87.4

[a] COc1cc(CC(CN)C(=O)N2CCCc3ccccc32)ccc1OCCOc1c(Cl)cc(C)cc1Cl (stereo not drawn) [Example 48, hydrochloride]
[b] Cc1cc(Cl)c(OCCOc2ccc(CC(CN)C(=O)N3CCCc4cc(C(F)(F)F)ccc43)cc2)c(Cl)c1 (stereo not drawn) [Example 15]
Please let me know which one, a or b , has a lower measured inhibition at 1 µM value. Response format: the label of the selected entry.
a

[I] COc1cc2c(cc1OC)CN(C(=O)C(CN)Cc1ccc(OCCOc3c(Cl)cc(C)cc3Cl)cc1)CC2 (stereo not drawn) [Example 17]
[II] Cc1cc(Cl)c(OCCOc2ccc(CC(CN)C(=O)N3CCCc4cc(OC(F)(F)F)ccc43)cc2)c(Cl)c1 (stereo not drawn) [Example 27, hydrochloride]
Given the listed records, identify the one among I and II with higher inhibition at 1 µM. Response format: the label of the selected entry.
II
